Overview of recorded relative viability for various compounds
- Test system: NCI-H1666
- EXPERIMENT: relative viability (nuclei count vs DMSO), 5 days (fraction); higher = more cells survive
- SETUP_CONDITIONS: first compound 0.005 µM

- COMPOUND: "COc1cc2nccc(Oc3ccc(NC(=O)Nc4cc(C)on4)c(Cl)c3)c2cc1OC [Tivozanib] + N=C(N)NC(=N)NCCc1ccccc1 [Phenformin] (partner 250 µM)"
  ASSAY_TARGET: "NCI-H1666"
  relative viability: 0.507
- COMPOUND: "Nc1ccn([C@@H]2O[C@H](CO)[C@@H](O)[C@@H]2O)c(=O)n1 [Cytarabine] + O=C(CCCCCCC(=O)Nc1ccccc1)NO [Vorinostat] (partner 1 µM)"
  ASSAY_TARGET: "NCI-H1666"
  relative viability: 0.948
- COMPOUND: "COc1cc2nccc(Oc3ccc(NC(=O)Nc4cc(C)on4)c(Cl)c3)c2cc1OC [Tivozanib] + COc1cccc2cc(-c3nc([C@H]4CC[C@H](C(=O)O)CC4)n4ncnc(N)c34)[nH]c12 [OSI-027] (partner 0.5 µM)"
  ASSAY_TARGET: "NCI-H1666"
  relative viability: 0.927
- COMPOUND: "Nc1ccn([C@@H]2O[C@H](CO)[C@@H](O)[C@@H]2O)c(=O)n1 [Cytarabine] + Nc1nc2[nH]cc(CCc3ccc(C(=O)N[C@@H](CCC(=O)O)C(=O)O)cc3)c2c(=O)[nH]1 [Pemetrexed] (partner 0.2 µM)"
  ASSAY_TARGET: "NCI-H1666"
  relative viability: 0.761
- COMPOUND: "COc1cc2nccc(Oc3ccc(NC(=O)Nc4cc(C)on4)c(Cl)c3)c2cc1OC [Tivozanib] + CCNC(=O)c1noc(-c2cc(C(C)C)c(O)cc2O)c1-c1ccc(CN2CCOCC2)cc1 [Luminespib] (partner 0.01 µM)"
  ASSAY_TARGET: "NCI-H1666"
  relative viability: 0.89
- COMPOUND: "COc1cc2nccc(Oc3ccc(NC(=O)Nc4cc(C)on4)c(Cl)c3)c2cc1OC [Tivozanib] + Nc1nc2[nH]cc(CCc3ccc(C(=O)N[C@@H](CCC(=O)O)C(=O)O)cc3)c2c(=O)[nH]1 [Pemetrexed] (partner 0.2 µM)"
  ASSAY_TARGET: "NCI-H1666"
  relative viability: 0.829
- COMPOUND: "Nc1ccn([C@@H]2O[C@H](CO)[C@@H](O)[C@@H]2O)c(=O)n1 [Cytarabine] + COc1cccc2cc(-c3nc([C@H]4CC[C@H](C(=O)O)CC4)n4ncnc(N)c34)[nH]c12 [OSI-027] (partner 0.5 µM)"
  ASSAY_TARGET: "NCI-H1666"
  relative viability: 0.81
- COMPOUND: "COc1cc2nccc(Oc3ccc(NC(=O)Nc4cc(C)on4)c(Cl)c3)c2cc1OC [Tivozanib] + CC1(C)CCC(c2ccc(Cl)cc2)=C(CN2CCN(c3ccc(C(=O)NS(=O)(=O)c4ccc(N[C@H](CCN5CCOCC5)CSc5ccccc5)c(S(=O)(=O)C(F)(F)F)c4)cc3)CC2)C1 [Navitoclax] (partner 0.5 µM)"
  ASSAY_TARGET: "NCI-H1666"
  relative viability: 0.993
- COMPOUND: "COc1cc2nccc(Oc3ccc(NC(=O)Nc4cc(C)on4)c(Cl)c3)c2cc1OC [Tivozanib] + CC(C)C[C@H](NC(=O)[C@H](Cc1ccccc1)NC(=O)c1cnccn1)B(O)O [Bortezomib] (partner 0.002 µM)"
  ASSAY_TARGET: "NCI-H1666"
  relative viability: 0.746
- COMPOUND: "Nc1ccn([C@@H]2O[C@H](CO)[C@@H](O)[C@@H]2O)c(=O)n1 [Cytarabine] + N=C(N)NC(=N)NCCc1ccccc1 [Phenformin] (partner 250 µM)"
  ASSAY_TARGET: "NCI-H1666"
  relative viability: 0.545
